Test system: DU-145 prostate
measurement_protocol: NCI-60 one-dose screen, 48 h (100 = growth as untreated, 0 = no growth, -100 = all killed)
particulars: 10 µM unless noted
Compounds without any hit were thinned out: in the full panel of roughly 83,000, 20% have a hit. The source made the active and inactive calls. Rule for the calls: active = growth percent below 10; inactive = the rest.
Catalogue of compounds with associated growth

>  <compound>
Cc1ccc(Cc2cnc(NC(=O)c3cc(Br)cs3)s2)cc1

>  <result>
84.9% (inactive)

$$$$

I would be grateful if you could share the reported growth for CNC(=O)c1c(NC(=O)c2ccc(C(F)(F)F)cc2)sc2c1CCC(=O)C2 .
29% (inactive)

growth for CC(C)(C)[Si](C)(C)O[C@H]1C(=O)C=CN2CC=C[C@@H]12 ?
108% [100 µM] (inactive)

Please look up its growth: N#CC1=C(c2ccc(Cl)cc2)Nc2c(c(-c3ccc(Cl)cc3)nn2-c2ccccc2)C12C(=O)Nc1ccc(Cl)cc12 (stereo not given)
76.6% (inactive)

Reported growth, compound COc1ccc(-c2ccc3cnc4sc(-c5ccc(OC)cc5)nc4c3n2)cc1 : ____
107% (inactive)

---

Test system: CCRF-CEM leukemia
measurement_protocol: NCI-60 one-dose screen, 48 h (100 = growth as untreated, 0 = no growth, -100 = all killed)
particulars: 10 µM unless noted
This is part of a sample that, as a whole, favours compounds with a hit. Of some 83,000 tested, about 20% had one in any assay.
Form field: growth (one value per entry).
Write the value in % as a bare number.

>  <record_smiles>
CCN(CC)CCOc1ccc(C(=C(C)c2ccc(Cl)cc2)c2ccc(OCCN(CC)CC)cc2)cc1

>  <growth [%]>
-62.8

$$$$

Record lookup: for CCRF-CEM leukemia, what growth belongs to C=CCn1cc(-c2nc3ccccc3s2)c2cc(-c3ccc4c5c(cccc35)C(=O)N(N)C4=O)ccc21 ?
104

Form: Entry = Cc1cc2c(O)c(-c3cc(Cl)ccc3Cl)c3sc(=O)oc3c2cc1C | System = CCRF-CEM leukemia | growth = ____
53.8

Param readout = growth; param system = CCRF-CEM leukemia; param query = CCNC(=O)c1[nH]cc(-c2ccccc2)c1-c1cc(OC)c2c(c1OC)OCO2 ; response: value
101

For the record c1ccc(CNc2c3ccccc3nc3ccccc23)cc1 , what value of growth is listed for CCRF-CEM leukemia?
39

---

Examples of compounds with documented growth follow.
Test system: KM12 colon
measurement_protocol: NCI-60 one-dose screen, 48 h (100 = growth as untreated, 0 = no growth, -100 = all killed)
particulars: 10 µM unless noted
This is part of a sample that, as a whole, favours compounds with a hit. Of some 83,000 tested, about 20% had one in any assay.
Report the figure in % without appending any unit label.

Below: 6 compounds and their reported growth.
>  <compound>
Cc1ccc(Cl)cc1Nc1nc(C(F)(F)F)ccc1C(=O)N/N=C/c1cccnc1

>  <quantitative_result>
34.7

$$$$
>  <compound>
CCNc1cc(-c2cccc(OC(F)(F)F)c2)nc2ccc(N3CCCC3)cc12

>  <quantitative_result>
4.19

$$$$
>  <compound>
O=C(NNC(=O)c1ccc(-n2cc(-c3ccccc3)nn2)cc1)Nc1ccccc1

>  <quantitative_result>
107

$$$$
>  <compound>
COc1cc2c(c(OC)c1OC)C(=O)CC(c1cccc(NC(=O)c3ccc(Br)cc3)c1)O2 (stereo not drawn)

>  <quantitative_result>
31.6

$$$$
>  <compound>
N=C(N)c1ccc(-c2ccc(-c3ccc(Cl)cc3)s2)nc1

>  <quantitative_result>
-74.8

$$$$
>  <compound>
CC(=O)Nc1nc2ccc(NS(=O)(=O)c3cccc4c(N(C)C)cccc34)cc2[nH]1

>  <quantitative_result>
55.1

$$$$

Could you now consider this next compound?
For COc1ccc(-c2nnc3n(C)c(=O)c4ccccc4n23)cc1N , what is its reported growth?
28.3

---

Tested on: SR leukemia
measurement_protocol: NCI-60 one-dose screen, 48 h (100 = growth as untreated, 0 = no growth, -100 = all killed)
particulars: 10 µM unless noted
About 83,000 compounds went through this panel and 20% of them were active in at least one assay; those are over-represented in the sample as a whole.
Rule: Met for growth not less than 50%, Not met for anything less.

Sample answers from the record:
>  <compound>
O=C(CSc1nc(-c2ccccc2)[nH]c1S(=O)(=O)c1ccccc1)NC1CC1

>  <qualitative_label>
Met

$$$$
>  <compound>
O=C(CCCCC1CCSS1)Nc1ncnc2n[nH]c(-c3ccc(Oc4ccccc4)cc3)c12 (stereo not given)

>  <qualitative_label>
Not met

$$$$
>  <compound>
COc1ccc2[nH]cc(-c3nc(-c4cn(C)c5c(Cl)nccc45)cs3)c2c1

>  <qualitative_label>
Not met

$$$$

Form field: growth at least 50%? Entry: CCN1CCN(Cc2cn(CC(=O)Nc3ccc4c(ccn4Cc4ccccc4)c3)nn2)CC1
Met

Evaluate COc1ccc(-c2nc(SCC(C)C)nc(N/N=C\c3ccc(F)cc3)c2C#N)cc1 : growth at minimum 50%?
Not met

---

System: NCI-H322M lung
measurement_protocol: NCI-60 one-dose screen, 48 h
particulars: 10 µM unless noted
Compounds without any hit were thinned out: in the full panel of roughly 83,000, 20% have a hit. Active and inactive are the calls of the source. How the source made its calls: active means growth percent below 10; inactive means the rest.
Give one outcome, nothing more. List: True (active), False (inactive)

Study these solved cases before continuing.
>  <molecule>
C[C@]12CC[C@@H]3c4ccc(O)c([N+](=O)[O-])c4CC[C@H]3[C@@H]1CCC2=O

>  <qualitative_label>
False

$$$$
>  <molecule>
O=C1/C(=C\c2cn(-c3ccccc3)nc2-c2ccc(-c3cccs3)cc2)CCc2ccccc21

>  <qualitative_label>
False

$$$$
>  <molecule>
CCCCN1C(=O)/C(=c2\sc3n(c2=O)C2C(NN=3)N(CC)C(=O)N2CC)c2ccccc21 (stereo not given)

>  <qualitative_label>
False

$$$$
>  <molecule>
CCOC(=O)c1c(C)c2c(n1C)CSc1cc(C(=O)c3ccccc3)c(=O)[nH]c1-2

>  <qualitative_label>
False

$$$$
>  <molecule>
Nc1nc(=S)c2ncn(C3OC(COP(=O)(O)O)C(O)C3O)c2[nH]1 (stereo not given)

>  <qualitative_label>
False

$$$$
>  <molecule>
CC1=C(CCC(C)N(C)Cc2ccc(OCCCN3CCCC3)cc2)C(C)(C)CCC1 (stereo not given)

>  <qualitative_label>
False

$$$$

How did this test come out for O=C1Nc2ccccc2/C1=C\c1nc(-c2ccccc2F)n2ccccc12 ?
False

Assay outcome for COc1ccc(C(=O)Nc2ncc(Cc3cccc(Cl)c3)s2)cc1OC : what was it?
False

Recorded test call requested for C#Cc1cccc(Nc2ncnc3ccc(-c4cncc(NS(C)(=O)=O)c4)cc23)c1
True

Recorded test call requested for O=C(CN1C(=O)CCC1=O)Nc1ncc(Cc2ccc(F)cc2)s1
False

---

Test system: COLO 205 colon
measurement_protocol: NCI-60 one-dose screen, 48 h (100 = growth as untreated, 0 = no growth, -100 = all killed)
particulars: 10 µM unless noted
The panel holds about 83,000 compounds, 20% with a hit somewhere; the sample as a whole holds those more often.
Criterion: growth strictly less than 40%. Met: 1. Not met: 0.

>  <compound>
O=C(OCc1ccc2cccc(O)c2n1)N1CCN(C(=O)c2cc3cc(F)ccc3[nH]2)CC1

>  <qualitative_label>
1

$$$$
>  <compound>
CC1=NN(c2nc(SCC(=O)Nc3nc4ccc(C)cc4s3)nc(-c3ccccc3)c2C#N)C(=O)C1

>  <qualitative_label>
0

$$$$
>  <compound>
Oc1c(Cl)cc(Cl)cc1/C=N/Nc1nnc(N/N=C/c2cc(Cl)cc(Cl)c2O)c2ccccc12

>  <qualitative_label>
1

$$$$

Item Cn1c(=O)c2[nH]c(N/N=C/c3ccccc3Br)nc2n(C)c1=O : growth beneath 40%, strictly?
0

Regarding N#Cc1c(N)nnn1Cc1cc(=O)oc2c1ccc1ccccc12 , kindly confirm whether its growth is beneath 40%.
0

Does O=C(Cc1ccccc1)Nc1nc(O)c(/C=C2\C(=O)C=Cc3ccccc32)s1 have growth strictly under 40%?
0

---

System: OVCAR-4 ovarian
measurement_protocol: NCI-60 one-dose screen, 48 h (100 = growth as untreated, 0 = no growth, -100 = all killed)
particulars: 10 µM unless noted
The panel holds about 83,000 compounds, 20% with a hit somewhere; the sample as a whole holds those more often.
observation_type: growth (%)
Write the value in % as a bare number.

Previously resolved entries follow.
>  <compound>
S=C1CCSC(=S)N1CCCN1C(=S)CCSC1=S

>  <quantitative_result>
83.7

$$$$
>  <compound>
C#Cc1cccc(Nc2ncnc3ccc(-c4cnc(N)nc4)cc23)c1

>  <quantitative_result>
46.1

$$$$
>  <compound>
CCCCN1C(=O)/C(=c2\sc3n(c2=O)C2C(NN=3)N(CC)C(=O)N2CC)c2ccccc21 (stereo not given)

>  <quantitative_result>
37.5

$$$$
>  <compound>
COc1ccc(OC)c(C(=O)/C=C/c2cc3c(c(OC)c2OC)OCO3)c1

>  <quantitative_result>
63.4

$$$$
>  <compound>
O=[N+]([O-])C1C(c2ccccc2)C12c1ccccc1-c1ccccc12 (stereo not given)

>  <quantitative_result>
57.2

$$$$

growth for Nc1nc2c([nH]1)c1[nH]c3ccccc3c1c1[nH]c3ccccc3c21 ?
66.8

Consider the compound Cn1cc(-c2nc(-c3c[nH]c4ccncc34)cs2)c2ccccc21 and give its measured growth.
52.1

Tell me the measured growth of Cn1cccc1C(=O)C1C(c2cccc([N+](=O)[O-])c2)C2C3CCCCC3CN2C12C(=O)Nc1ccc(Cl)cc12 (stereo not given) , please.
70.5

Would you kindly share the measured growth for C/C(=C(/c1ccc(Cl)cc1)c1ccc(OCCN2CCCC2)cc1)c1ccc(Cl)cc1 ?
95.1

Recorded growth for CCn1cc(C(=O)N/N=C/c2cccs2)c(=O)c2cc(F)c(N3CCNC(C)C3)c(F)c21 (stereo not given) , please?
76.2

Consider the compound Fc1cc(F)cc(C(c2c[nH]c3ccccc23)c2c[nH]c3ccccc23)c1 and give its measured growth.
116

Which growth value is on record for CN(C)CCCC1(c2ccc(F)cc2)OCc2cc(-c3cncc4ccccc34)ccc21 (stereo not given) ?
43.9

Requested read-out: growth. Entry: CCN(CC)CCOc1ccc(C(=C(C)c2ccc(Cl)cc2)c2ccc(OCCN(CC)CC)cc2)cc1
-62.1

What does the record list as growth for N=C(N)c1ccc(-c2ccc(-c3ccc(F)cc3)o2)o1 ?
62

So what's the measured growth for this one? O=Cc1ccc([N+](=O)[O-])s1
98.3

growth lookup needed for CN(C)c1ccc(/C=C/C(=O)c2ccc(-n3cc(CN4CCN(c5cc6c(cc5F)c(=O)c(C(=O)O)cn6C5CC5)CC4)nn3)cc2)cc1 , thanks.
93.1

Can you look up the measured growth of COc1ccc(/C(C)=C(/c2ccc(OCCCN(C)C)cc2)c2ccc(OC(=O)Cc3ccccc3)cc2)cc1 for me?
87.9

Please report the recorded growth for O=c1oc2ccccc2cc1C1=NN=C(SCc2ccccc2)SC1 .
88.9

Which growth is reported for this compound? Cc1ccc(S(=O)(=O)N2CCCC2CO)cc1 (stereo not given)
93.5

Need growth, item CCCCCC(=O)OCC(=O)O[C@@H]1C[C@]2(C(C)C)O[C@@]1(C)[C@@H]1CC[C@@H](C)[C@H]1[C@@H]2OC(=O)/C=C/c1ccccc1
75.7
